# Test system: RARa homodimer (NR concentration 270 nM)
# methodNotes: PBM binding z-score (relative to random genomic background probes); higher = stronger binding; sequences stand for … in GC…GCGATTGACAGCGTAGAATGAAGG
Here the recorded PBM binding z-score is given for each entry.
valueType: PBM binding z-score

[[record]]
orderedresidues = "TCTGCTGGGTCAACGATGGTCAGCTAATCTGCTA"
systemname = "RARa homodimer (NR concentration 270 nM)"
observed = -1.24

[[record]]
orderedresidues = "CTATGTAGGTTAATGGGGTCATTCAGTTTGAAAG"
systemname = "RARa homodimer (NR concentration 270 nM)"
observed = 1.57

[[record]]
orderedresidues = "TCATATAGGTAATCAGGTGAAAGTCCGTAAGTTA"
systemname = "RARa homodimer (NR concentration 270 nM)"
observed = 1.28

[[record]]
orderedresidues = "ATATGTAGGTTAGGGTTATTCAGAAAGTAGGGAA"
systemname = "RARa homodimer (NR concentration 270 nM)"
observed = 1.94

[[record]]
orderedresidues = "TCGAATAGGTTACGGGGGCATTCAGGGATGAAGA"
systemname = "RARa homodimer (NR concentration 270 nM)"
observed = 1.33

[[record]]
orderedresidues = "CCTAGTTGGTCAGGAAGTCACACACCGGATATGA"
systemname = "RARa homodimer (NR concentration 270 nM)"
observed = 1.63

[[record]]
orderedresidues = "CCGAGTAGGTTACGAGGGGGCTTTCAGTGCGAAT"
systemname = "RARa homodimer (NR concentration 270 nM)"
observed = -0.415

[[record]]
orderedresidues = "CCGAGTAGGTTACGAGCGGGCATTCAGTGCGAAT"
systemname = "RARa homodimer (NR concentration 270 nM)"
observed = -0.596

[[record]]
orderedresidues = "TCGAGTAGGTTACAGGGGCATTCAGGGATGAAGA"
systemname = "RARa homodimer (NR concentration 270 nM)"
observed = 0.487

[[record]]
orderedresidues = "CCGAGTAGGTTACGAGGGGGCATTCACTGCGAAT"
systemname = "RARa homodimer (NR concentration 270 nM)"
observed = 0.267

[[record]]
orderedresidues = "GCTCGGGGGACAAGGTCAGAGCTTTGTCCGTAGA"
systemname = "RARa homodimer (NR concentration 270 nM)"
observed = -0.41

[[record]]
orderedresidues = "CTATGTAGGTTAAGGGGGTGATTCAGTTTGAAAG"
systemname = "RARa homodimer (NR concentration 270 nM)"
observed = 1.25

[[record]]
orderedresidues = "CGTCCAAGGTCAAGGTCACTGAAAGAGACTCGAA"
systemname = "RARa homodimer (NR concentration 270 nM)"
observed = 1.64

[[record]]
orderedresidues = "TTACCAAGGTGAAAGGTCGTTGAGGCACGCCTTG"
systemname = "RARa homodimer (NR concentration 270 nM)"
observed = 0.265

[[record]]
orderedresidues = "CGAACTAGGTCACGAGGACAGTGAAGAGGTTGGA"
systemname = "RARa homodimer (NR concentration 270 nM)"
observed = 0.4

[[record]]
orderedresidues = "CCTTACGGGTCAGGGTTATAGCACGGGTGGTACG"
systemname = "RARa homodimer (NR concentration 270 nM)"
observed = 0.308

[[record]]
orderedresidues = "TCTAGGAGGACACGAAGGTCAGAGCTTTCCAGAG"
systemname = "RARa homodimer (NR concentration 270 nM)"
observed = -0.482

[[record]]
orderedresidues = "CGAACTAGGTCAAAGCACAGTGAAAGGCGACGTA"
systemname = "RARa homodimer (NR concentration 270 nM)"
observed = 0.149

[[record]]
orderedresidues = "CCTTACGGGTCACGGTTATAGCACGGGTGGTACG"
systemname = "RARa homodimer (NR concentration 270 nM)"
observed = 0.629

[[record]]
orderedresidues = "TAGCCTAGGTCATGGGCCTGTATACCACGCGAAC"
systemname = "RARa homodimer (NR concentration 270 nM)"
observed = 0.359

[[record]]
orderedresidues = "AAATGTAGGTTAAGGGTCATTCAGGTTGGTTCGC"
systemname = "RARa homodimer (NR concentration 270 nM)"
observed = 2.02

[[record]]
orderedresidues = "GCTTACGGGTCAAAGGTTATAACATGAATAGAAT"
systemname = "RARa homodimer (NR concentration 270 nM)"
observed = 0.937

[[record]]
orderedresidues = "CAAAATAGGTCAAGGTCAAAGTCGGTTTGTGCCA"
systemname = "RARa homodimer (NR concentration 270 nM)"
observed = 1.28

[[record]]
orderedresidues = "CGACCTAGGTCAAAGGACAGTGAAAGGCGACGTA"
systemname = "RARa homodimer (NR concentration 270 nM)"
observed = -0.132

[[record]]
orderedresidues = "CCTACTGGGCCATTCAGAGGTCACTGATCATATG"
systemname = "RARa homodimer (NR concentration 270 nM)"
observed = 0.335

[[record]]
orderedresidues = "TTACCAAGGTGAAAGGTCGTTGAAGCACGCCTTG"
systemname = "RARa homodimer (NR concentration 270 nM)"
observed = -0.363

